target-system: human EP4 prostanoid receptors (Homo sapiens)
Construct: expressed in transfected cells; host or cells: HEK-293
protocol-text: Antagonist activity at EP4 prostanoid receptors (PGE2-stimulated cAMP in HEK-293 clones)
Format: cell-based
stated-conditions: functional classification at EP4, second line of the activity cell
reported-property: activity (EP4 part)

O=C(O)Cc1ccc(NC(=O)c2ccc(-c3ccccc3)o2)cc1
EP4 antagonist
O=C(O)c1cc2cc(NC(=O)c3ccc(-c4cccc(Cl)c4)o3)ccc2[nH]1
EP4 antagonist
O=C(O)COc1cccc(NC(=O)c2ccc(-c3cc(Cl)cc(Cl)c3)o2)c1
EP4 antagonist

###

target-system: human EP4 receptor (Homo sapiens)
Construct: expressed in transfected cells
Sequence (P35408 whole entry): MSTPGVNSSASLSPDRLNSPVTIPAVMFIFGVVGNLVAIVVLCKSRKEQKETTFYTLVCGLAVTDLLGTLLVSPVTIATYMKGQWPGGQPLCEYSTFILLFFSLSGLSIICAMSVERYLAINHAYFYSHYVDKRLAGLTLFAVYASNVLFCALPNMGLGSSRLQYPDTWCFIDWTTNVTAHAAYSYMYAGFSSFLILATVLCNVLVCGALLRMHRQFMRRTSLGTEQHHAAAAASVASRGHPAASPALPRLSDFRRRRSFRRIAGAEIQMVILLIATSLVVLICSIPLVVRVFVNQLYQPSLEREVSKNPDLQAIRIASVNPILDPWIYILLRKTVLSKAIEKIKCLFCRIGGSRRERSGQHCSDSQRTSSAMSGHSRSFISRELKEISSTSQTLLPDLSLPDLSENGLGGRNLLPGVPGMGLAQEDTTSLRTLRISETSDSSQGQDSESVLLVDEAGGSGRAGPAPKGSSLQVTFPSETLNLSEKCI
protocol-text: Binding ability to human EP receptors ([3H]PGE2 displacement), EP4
stated-conditions: membranes expressing human EP4; [3H]PGE2 1 nM; Cheng-Prusoff; read-out: pKi (M) EP4 (converted)
Please respond with reported Ki for every item in the list.

Any idea what its Ki is? The molecule is O=C(O)COc1cccc(NC(=O)c2ccc(-c3cccc(Cl)c3)o2)c1 [Compound 66]
< 1e-06 M

Any idea what its Ki is? The molecule is O=C(O)COc1cccc(NC(=O)c2cccc(-c3cccc(F)c3)n2)c1 [Compound 170]
< 1e-06 M

Any idea what its Ki is? The molecule is O=C(Nc1cccc(Cc2nnn[nH]2)c1)c1ccc(-c2ccc(F)cc2)o1 [Compound 85]
> 1e-05 M

Any idea what its Ki is? The molecule is O=C(O)Cc1cccc(NC(=O)c2ccc(-c3ccccc3)o2)c1 [Compound 10]
> 1e-05 M

Any idea what its Ki is? The molecule is O=C(O)Cc1cccc(NC(=O)c2cccc(-c3ccccc3)c2)c1 [Compound 49]
> 1e-05 M

Any idea what its Ki is? The molecule is O=C(O)COc1cccc(NC(=O)c2cc(-c3cc(Cl)cc(Cl)c3)ccc2F)c1 [Compound 143]
> 1e-05 M

Any idea what its Ki is? The molecule is O=C(Nc1ccc2[nH]c(C(=O)O)cc2c1)c1cccc(-c2cc(Cl)cc(Cl)c2)n1 [Compound 135]
> 1e-05 M

Any idea what its Ki is? The molecule is O=C(O)CCc1cccc(NC(=O)c2ccc(-c3cccc(F)c3)o2)c1 [Compound 163]
> 1e-05 M

Any idea what its Ki is? The molecule is O=C(O)Cc1cccc(NC(=O)c2ccc(-c3ccccc3)s2)c1 [Compound 43]
> 1e-05 M
